- test-system: T1, hVISTA-Fc (R&D systems. Cat. No. 7126-B7) (human, UniProt Q9H7M9 33-194)
- T1 construct: Bought antigen; also called human VISTA-Fc; VISTA-FC Human
- T1 sequence: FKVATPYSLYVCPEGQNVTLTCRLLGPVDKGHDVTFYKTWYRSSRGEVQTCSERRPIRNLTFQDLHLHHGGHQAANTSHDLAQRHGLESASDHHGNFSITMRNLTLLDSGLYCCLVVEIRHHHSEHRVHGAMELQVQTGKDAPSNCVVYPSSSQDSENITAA
- test-summary: Octet (BLI), antibody immobilised on biosensor, antigen in solution
- Procedure: The binding ability of the screened antibody to the antigen was measured using an Octet (ForteBio). For this purpose, the antibody was immobilized on a biosensor, various concentrations of antigen were added to a 96-well plate, and then the binding ability was measured.
quantity-measured: kon (M⁻¹ s⁻¹)
Could you give me the number in M⁻¹ s⁻¹? Just the number is fine.

Examples with answers:
binder="anti-VISTA antibody 2C12 (IgG form) (antibody, V domains shown, also called #2C12(H); #2C12(M)) VH: QVQLVESGAEVKKPGASVKVSCKASGYIFTDYYMHWVRQAPGQGLEWMGVINPYDGRTSFAQKFQGRLTVTRDTSTSTAYMDLSGLRSEDTAVYYCAKQMGIWDYDAFDIWGQGTMVTVSS VL: QFVLTQPSSVSGAPGQRVIISCTGSSSNIGAGYDVHWYQQLPGTAPKVLIYGNSDRPSGVPDRFSASKSATSASLAITGLQAEDEADYYCVAWDDSLKAYVFGTGTKVTVLG" value_units="M⁻¹ s⁻¹" measured_value=83400
binder="anti-VISTA antibody 3C5 (IgG form) (antibody, V domains shown) VH: QVQLVQSGAEVKKPGASVKLSCKASGYTFSSYWMHWVRQAPGQRLEWMGEINPGNGHTNYNEKFKSRVTITVDKSASTAYMELSSLRSEDTAVYYCAKDIAYYDFWSGDAFDLWGQGTMVTVSS VL: SYELTQPLSVSVSPGQTASITCSGDKLGNKYASWYQQKPGQSPVLVIYQDNKRPSGIPERFSGSNSGNTATLTISGTQATDEADYYCQTWDRSTGVFGTGTKVTVLG" value_units="M⁻¹ s⁻¹" measured_value=264000
binder="anti-VISTA antibody 1A12 (IgG form) (antibody, V domains shown) VH: QMQLVESGGGLVEPGRSLRLSCTTSGFSFHDYTMYWVRQVPGKGLEWVSLISWDGTITFYADPVRGRFTISRDNSKNSLYLQMNSLRAEDTAVYYCAKEDRYDYYSGAFDIWGQGTVVTVSS VL: QSALTQPRSVSGSPGQSVTISCTGTSSDVGGYDYVSWYQQHPGKAPKLILNDVNKRPSGVPDRFSGSKSGNTASLTISGLQPDDEADYYCSSFAGSNTLRVFGGGTKLTVLG" value_units="M⁻¹ s⁻¹" measured_value=50200

Turning to the following binder.
Q. For anti-VISTA antibody 1B8 (IgG form) (antibody, V domains shown, also called Anti VISTA 3.0(1B8); anti-VISTA mAb 1B8) VH: QMQLVQSGAEVKKPGSSVKVSCKASGGSSSNYAISWVRQAPGQGLEWMGGIIPIFGTTSYAQKFQGRVTITADGSMSTAYMELSSLRSEDTAVYYCAKGAIEPWPFYFDNWGQGTLVTVSS VL: QLVLTQPRSVSGSPGQSVTISCTGTNSDVGAYNYLSWYQQLPGRAPKVIIYDVNKRPSGVPDRFSGSRSGKTASLTISGLQAEDEADYYCAAWDDSLNGLVFGGGTKLTVLG , what is its reported kon?
A. 111000

Cited source for all entries: patent US20200407449A1
